Attribution: PubChem BioAssay AID1159558

Target: Sterol 14-alpha demethylase (Trypanosoma cruzi (strain CL Brener)) (UniProt Q7Z1V1)
Sequence (Q7Z1V1 whole entry, looked up): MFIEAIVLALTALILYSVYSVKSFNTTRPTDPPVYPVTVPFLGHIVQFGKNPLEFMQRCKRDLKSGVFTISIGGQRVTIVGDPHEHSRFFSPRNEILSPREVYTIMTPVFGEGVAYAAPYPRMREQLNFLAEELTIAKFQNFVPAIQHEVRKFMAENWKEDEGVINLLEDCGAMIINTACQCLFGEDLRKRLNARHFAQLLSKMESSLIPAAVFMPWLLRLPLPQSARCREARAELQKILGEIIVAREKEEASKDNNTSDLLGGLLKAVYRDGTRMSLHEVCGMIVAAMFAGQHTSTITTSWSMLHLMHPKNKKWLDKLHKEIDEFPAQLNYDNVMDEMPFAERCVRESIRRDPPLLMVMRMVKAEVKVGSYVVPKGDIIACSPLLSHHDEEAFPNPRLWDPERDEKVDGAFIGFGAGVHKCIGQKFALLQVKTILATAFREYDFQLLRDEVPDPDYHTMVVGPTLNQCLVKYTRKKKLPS
Assay: TcCYP51 inhibitors, dose response, mechanism study for T. cruzi antiparasitic project, biochemical, recombinant enzyme (AID 1159558);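 also: enzyme in bacterial membranes with Anopheles gambiae CYP reductase and cytochrome b5 partners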
Details: recombinant T. cruzi CYP51, BOMCC fluorescence
Active and inactive are the calls of the source.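 The calls were made as follows: active = IC50 against T. cruzi CYP51 below a set limit; inactive = the rest.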
Respond using exactly one of the listed classes: yes (1) for active, no (0) for inactive

Query string: Which result was noted for this compound in the test: Cc1c(CNC(=O)c2ccc(Cn3cc(Cl)c([N+](=O)[O-])n3)cc2)cnn1C
Result string: no (0)

Query string: Recorded test call requested for c1ccc2c(CCOc3nccnc3-c3ccncc3)c[nH]c2c1
Result string: yes (1)

Query string: Can you look up the reported call for CN(Cc1ccc(F)cc1)c1ccc(OCC(=O)N2CCCCC2c2cccnc2)nn1 (stereo not given) for me?
Result string: yes (1)

Query string: Could you please tell me the result logged for Cn1nccc1NC(=O)Cn1ccc(-c2ccncc2)n1 in this assay?
Result string: yes (1)

Query string: For this compound, state the assay outcome: Cc1ccccc1NS(=O)(=O)c1ccc2[nH]cc(C(=O)NC3CCCCC3)c(=O)c2c1
Result string: yes (1)

Query string: Could you please tell me the result logged for O=C(O)[C@H]1C[C@@H]1c1ccc(-c2ccc(CN(CCc3ccccn3)C(=O)C3CCC3)cc2)cc1 in this assay?
Result string: yes (1)

Query string: // return assay outcome for Cc1nc2nc(C)c(Cc3ccc(C(C)C)cc3)c(=O)n2[nH]1
Result string: no (0)

Query string: Tell me the assay call for CC(C)CC(=O)NC(c1cccs1)c1ccc2cccnc2c1O (stereo not given) please.
Result string: yes (1)

Query string: Which outcome was entered for the compound COc1cnc2ccc(=O)n(CCN3CCC(NC(=O)Cc4ccc(Cl)c(Cl)c4)CC3)c2c1 in this test?
Result string: yes (1)

Query string: // return assay outcome for CNc1cncc(C2CCCN2C(=O)Cc2coc3cc(C)ccc23)n1 (stereo not given)
Result string: yes (1)
